# MEASURED TARGET: UniProtKB P51681
# Sequence (P51681 whole entry, species assumed): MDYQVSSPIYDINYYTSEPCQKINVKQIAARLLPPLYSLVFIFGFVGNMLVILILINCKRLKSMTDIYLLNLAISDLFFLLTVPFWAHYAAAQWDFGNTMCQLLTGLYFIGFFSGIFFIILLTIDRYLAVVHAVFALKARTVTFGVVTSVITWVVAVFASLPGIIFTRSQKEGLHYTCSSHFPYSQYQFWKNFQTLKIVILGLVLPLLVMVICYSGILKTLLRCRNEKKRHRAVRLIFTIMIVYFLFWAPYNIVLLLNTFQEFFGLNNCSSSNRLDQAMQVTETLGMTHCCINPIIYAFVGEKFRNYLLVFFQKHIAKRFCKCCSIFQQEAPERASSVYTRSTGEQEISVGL
# PROTOCOL DETAILS: CCR5 FLIPR Calcium assay (intracellular calcium signaling)
# MEASUREMENT SETUP: HEK293 host cells, clone C13; agonist RANTES; Fluo-4 calcium signal
Simple rule here: IC50 less than 6 nM is 1, otherwise 0.

Some entries whose results are on file:
MOLECULE	CATEGORY
CCCCOCCOc1ccc(-c2ccc3c(c2)C=C(C(=O)Nc2ccc([S+]([O-])Cc4cnc(C)cc4CC)cc2)CCCN3CC2CCCO2)cc1 (single isomer, unassigned)	0
CCCCOCCOc1ccc(-c2ccc3c(c2)C=C(C(=O)Nc2ccc([S+]([O-])Cc4c(CC)ccnc4C)cc2)CCCN3CC2CCCO2)cc1 (single isomer, unassigned)	1
CCCCOCCOc1ccc(-c2ccc3c(c2)C=C(C(=O)Nc2ccc([S+]([O-])Cc4c(CC)ccnc4C)cc2)CCCN3CC2CCOCC2)cc1 (single isomer, unassigned)	1
CCCCOCCOc1ccc(-c2ccc3c(c2)C=C(C(=O)Nc2ccc([S+]([O-])Cc4c(C)ccnc4C)cc2)CCCN3CC2CCOCC2)cc1 (single isomer, unassigned) [WX018]	0
CCCCOCCOc1ccc(-c2ccc3c(c2)/C=C(/C(=O)Nc2ccc([S+]([O-])Cc4cnc(C)cc4C)cc2)CCCN3CC2CCCO2)cc1 (single isomer, unassigned) [WX024]	0

Incoming: Take the molecule CCCCOCCOc1ccc(-c2ccc3c(c2)/C=C(/C(=O)Nc2ccc([S@+]([O-])Cc4c(CC)ccnc4C)cc2)CCCN3C[C@H]2CCCO2)cc1 (single isomer, unassigned) and say whether its IC50 is less than 6 nM.
Outgoing: 1

Incoming: Take the molecule CCCCOCCOc1ccc(-c2ccc3c(c2)C=C(C(=O)Nc2ccc([S+]([O-])Cc4cnccc4CC)cc2)CCCN3CC2CCCO2)cc1 (single isomer, unassigned) [WX005] and say whether its IC50 is less than 6 nM.
Outgoing: 0

Incoming: Take the molecule CCCCOCCOc1ccc(-c2ccc3c(c2)C=C(C(=O)Nc2ccc([S+]([O-])Cc4cnccc4CC)cc2)CCCN3CC2CCCO2)cc1 (single isomer, unassigned) [WX004] and say whether its IC50 is less than 6 nM.
Outgoing: 0

Incoming: Take the molecule CCCCOCCOc1ccc(-c2ccc3c(c2)C=C(C(=O)Nc2ccc([S+]([O-])Cc4cnccc4CC)cc2)CCCN3CC2COCCO2)cc1 (single isomer, unassigned) [WX002] and say whether its IC50 is less than 6 nM.
Outgoing: 0

Incoming: Take the molecule CCCCOCCOc1ccc(-c2ccc3c(c2)/C=C(/C(=O)Nc2ccc([S@+]([O-])Cc4cnc(C)cc4CC)cc2)CCCN3C[C@H]2CCCO2)cc1 (single isomer, unassigned) and say whether its IC50 is less than 6 nM.
Outgoing: 0

Incoming: Take the molecule CCCCOCCOc1ccc(-c2ccc3c(c2)/C=C(/C(=O)Nc2ccc([S+]([O-])Cc4cnc(C)cc4C)cc2)CCCN3CC2CCCO2)cc1 (single isomer, unassigned) [WX023] and say whether its IC50 is less than 6 nM.
Outgoing: 0

###

# PROTOCOL DETAILS: Comparative pharmacokinetic test in mice
# Assay type: in vivo, C57BL/6 male mice
# MEASUREMENT SETUP: male, C57BL/6, mouse, plasma; mice, intravenous injection 2 mg/kg
Parameter half-life: see the listing below.

COMPOUND	half-life
CCCCOCCOc1ccc(-c2ccc3c(c2)C=C(C(=O)Nc2ccc([S+]([O-])Cc4c(CC)ccnc4C)cc2)CCCN3CC2CCCO2)cc1 (single isomer, unassigned) [WX009]	4.4 h

Would you kindly look at the next entry?
Incoming: Input CCCCOCCOc1ccc(-c2ccc3c(c2)/C=C(/C(=O)Nc2ccc([S@@+]([O-])Cc4cncn4CCC)cc2)CCCN3CC(C)C)cc1 [(Cenicriviroc), Cenicriviroc, reference compound] , output reported half-life.
Outgoing: 3.55 h

###

# MEASURED TARGET: CYP2C9 (Homo sapiens)
# Construct: from tissue; host or cells: human liver microsomes
# Sequence (P11712 whole entry): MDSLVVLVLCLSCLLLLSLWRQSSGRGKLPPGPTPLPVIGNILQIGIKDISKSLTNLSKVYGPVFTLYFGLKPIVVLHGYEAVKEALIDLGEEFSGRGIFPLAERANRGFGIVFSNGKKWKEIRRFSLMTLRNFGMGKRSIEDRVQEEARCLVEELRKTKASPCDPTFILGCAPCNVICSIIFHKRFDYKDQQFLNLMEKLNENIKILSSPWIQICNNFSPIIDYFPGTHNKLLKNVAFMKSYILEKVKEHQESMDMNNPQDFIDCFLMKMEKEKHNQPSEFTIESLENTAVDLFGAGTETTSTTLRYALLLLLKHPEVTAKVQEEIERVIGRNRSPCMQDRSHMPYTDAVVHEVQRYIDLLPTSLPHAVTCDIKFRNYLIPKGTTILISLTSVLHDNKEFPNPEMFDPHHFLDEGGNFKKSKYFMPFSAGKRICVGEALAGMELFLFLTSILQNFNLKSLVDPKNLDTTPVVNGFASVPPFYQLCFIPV
# PROTOCOL DETAILS: Inhibition of human liver microsomal CYP2C9 activity
# Assay type: in vitro ADME
# MEASUREMENT SETUP: human liver microsomes, probe substrate diclofenac, NADPH
RESULT TYPE: IC50 (µM)
Answer format: numeric, µM implied, no suffix.

Incoming: Input CCCCOCCOc1ccc(-c2ccc3c(c2)C=C(C(=O)Nc2ccc([S+]([O-])Cc4cnc(C)cc4CC)cc2)CCCN3CC2CCOCC2)cc1 (single isomer, unassigned) , output reported IC50.
Outgoing: 22.6

###

Parameter clearance: see the listing below.
# PROTOCOL DETAILS: Comparative pharmacokinetic test in mice
# Type: in vivo, C57BL/6 male mice
# MEASUREMENT SETUP: male, C57BL/6, mouse, plasma; mice, intravenous injection 2 mg/kg; read-out: Plasma clearance rate
Answer format: numeric, mL/min/kg implied, no suffix.

COMPOUND	OBSERVED
CCCCOCCOc1ccc(-c2ccc3c(c2)C=C(C(=O)Nc2ccc([S+]([O-])Cc4c(CC)ccnc4C)cc2)CCCN3CC2CCCO2)cc1 (single isomer, unassigned)	0.46

Would you kindly look at the next entry?
Incoming: Input CCCCOCCOc1ccc(-c2ccc3c(c2)/C=C(/C(=O)Nc2ccc([S@@+]([O-])Cc4cncn4CCC)cc2)CCCN3CC(C)C)cc1 [(Cenicriviroc), Cenicriviroc, reference compound] , output reported clearance.
Outgoing: 2.28

###

# MEASURED TARGET: CYP3A4 (Homo sapiens, UniProt P08684)
# Sequence (P08684 whole entry): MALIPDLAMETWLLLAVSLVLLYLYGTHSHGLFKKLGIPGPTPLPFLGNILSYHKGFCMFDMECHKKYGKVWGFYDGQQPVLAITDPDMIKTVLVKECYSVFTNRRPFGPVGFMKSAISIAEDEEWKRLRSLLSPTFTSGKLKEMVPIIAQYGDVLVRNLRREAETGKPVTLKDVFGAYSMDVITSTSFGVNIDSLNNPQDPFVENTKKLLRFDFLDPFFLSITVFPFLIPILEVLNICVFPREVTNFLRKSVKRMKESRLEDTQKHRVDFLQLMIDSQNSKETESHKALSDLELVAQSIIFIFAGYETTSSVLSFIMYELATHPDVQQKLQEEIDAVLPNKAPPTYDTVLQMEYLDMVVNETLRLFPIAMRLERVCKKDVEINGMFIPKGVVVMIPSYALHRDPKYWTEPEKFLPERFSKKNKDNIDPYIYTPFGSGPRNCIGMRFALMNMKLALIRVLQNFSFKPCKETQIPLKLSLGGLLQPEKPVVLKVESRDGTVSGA
RESULT TYPE: IC50 (µM)
Answer format: numeric, µM implied, no suffix.

Incoming: Input CCCCOCCOc1ccc(-c2ccc3c(c2)C=C(C(=O)Nc2ccc([S+]([O-])Cc4c(CC)ccnc4C)cc2)CCCN3CC2CCCO2)cc1 (single isomer, unassigned) [WX009] , output reported IC50.
Outgoing: 4.6

###

Parameter bioavailability: see the listing below.
# PROTOCOL DETAILS: Comparative pharmacokinetic test in mice
# Type: in vivo, C57BL/6 male mice
# MEASUREMENT SETUP: male, C57BL/6, mouse, plasma; mice, oral 10 mg/kg
Give your result as the value with the unit written after it.

MOLECULE	RESULT TYPE	OBSERVED
CCCCOCCOc1ccc(-c2ccc3c(c2)C=C(C(=O)Nc2ccc([S+]([O-])Cc4c(CC)ccnc4C)cc2)CCCN3CC2CCCO2)cc1 (single isomer, unassigned) [WX009]	bioavailability	8%

Would you kindly look at the next entry?
Incoming: Input CCCCOCCOc1ccc(-c2ccc3c(c2)/C=C(/C(=O)Nc2ccc([S@@+]([O-])Cc4cncn4CCC)cc2)CCCN3CC(C)C)cc1 [(Cenicriviroc), Cenicriviroc, reference compound] , output reported bioavailability.
Outgoing: 6.02%

###

# MEASURED TARGET: CYP2D6 (Homo sapiens)
# Sequence (P10635 whole entry): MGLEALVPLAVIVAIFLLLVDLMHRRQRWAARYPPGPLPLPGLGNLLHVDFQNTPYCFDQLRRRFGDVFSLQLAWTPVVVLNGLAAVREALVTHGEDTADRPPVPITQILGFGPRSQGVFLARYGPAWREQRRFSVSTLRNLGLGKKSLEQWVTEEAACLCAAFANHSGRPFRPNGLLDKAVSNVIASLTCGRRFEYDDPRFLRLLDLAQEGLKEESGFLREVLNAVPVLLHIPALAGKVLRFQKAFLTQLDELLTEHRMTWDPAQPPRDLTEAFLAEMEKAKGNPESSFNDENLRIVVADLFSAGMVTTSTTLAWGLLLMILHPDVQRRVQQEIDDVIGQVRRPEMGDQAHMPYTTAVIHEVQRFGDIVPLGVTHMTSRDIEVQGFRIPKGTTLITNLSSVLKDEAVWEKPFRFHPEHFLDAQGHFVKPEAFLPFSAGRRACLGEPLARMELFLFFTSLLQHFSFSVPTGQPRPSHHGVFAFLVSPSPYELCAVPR
RESULT TYPE: IC50

Incoming: Lab note: record IC50 of CCCCOCCOc1ccc(-c2ccc3c(c2)C=C(C(=O)Nc2ccc([S+]([O-])Cc4cnc(C)cc4CC)cc2)CCCN3CC2CCOCC2)cc1 (single isomer, unassigned) tested on CYP2D6 (Homo sapiens).
Outgoing: > 50 µM

###

# MEASURED TARGET: CYP2C19 (Homo sapiens, UniProt P33261)
# Sequence (P33261 whole entry): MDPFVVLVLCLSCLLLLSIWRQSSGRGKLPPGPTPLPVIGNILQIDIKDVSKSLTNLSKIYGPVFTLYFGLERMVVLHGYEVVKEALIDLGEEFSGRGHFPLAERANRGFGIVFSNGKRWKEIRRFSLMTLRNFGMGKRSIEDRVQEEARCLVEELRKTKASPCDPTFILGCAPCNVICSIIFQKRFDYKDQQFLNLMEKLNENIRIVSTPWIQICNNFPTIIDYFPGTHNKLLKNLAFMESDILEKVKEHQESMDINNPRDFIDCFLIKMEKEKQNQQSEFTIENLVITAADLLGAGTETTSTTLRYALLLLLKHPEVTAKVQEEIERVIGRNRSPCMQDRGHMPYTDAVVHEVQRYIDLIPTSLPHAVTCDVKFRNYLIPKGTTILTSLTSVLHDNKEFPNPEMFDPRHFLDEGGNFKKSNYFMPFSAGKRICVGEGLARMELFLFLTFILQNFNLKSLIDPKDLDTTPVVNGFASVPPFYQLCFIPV
RESULT TYPE: IC50 (µM)
Answer format: numeric, µM implied, no suffix.

Incoming: Lab note: record IC50 of CCCCOCCOc1ccc(-c2ccc3c(c2)C=C(C(=O)Nc2ccc([S+]([O-])Cc4cnc(C)cc4CC)cc2)CCCN3CC2CCOCC2)cc1 (single isomer, unassigned) tested on CYP2C19 (Homo sapiens, UniProt P33261).
Outgoing: 10.1

###

# MEASURED TARGET: CYP1A2 (Homo sapiens, UniProt P05177)
# Sequence (P05177 1-516): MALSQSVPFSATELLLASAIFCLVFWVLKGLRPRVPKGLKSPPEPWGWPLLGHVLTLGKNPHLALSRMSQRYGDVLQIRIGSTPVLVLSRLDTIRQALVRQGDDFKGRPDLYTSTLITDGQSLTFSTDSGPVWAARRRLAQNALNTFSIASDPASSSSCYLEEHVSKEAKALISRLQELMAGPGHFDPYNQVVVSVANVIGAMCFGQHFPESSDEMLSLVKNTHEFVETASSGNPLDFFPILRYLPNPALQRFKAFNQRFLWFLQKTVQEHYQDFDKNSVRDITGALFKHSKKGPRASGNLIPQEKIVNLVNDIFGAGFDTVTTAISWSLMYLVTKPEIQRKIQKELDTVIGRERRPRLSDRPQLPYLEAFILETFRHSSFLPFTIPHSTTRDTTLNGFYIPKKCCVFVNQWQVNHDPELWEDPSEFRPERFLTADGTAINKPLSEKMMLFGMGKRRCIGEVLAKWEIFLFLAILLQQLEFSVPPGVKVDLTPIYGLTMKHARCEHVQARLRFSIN
Parameter IC50: see the listing below.

Incoming: Input CCCCOCCOc1ccc(-c2ccc3c(c2)C=C(C(=O)Nc2ccc([S+]([O-])Cc4c(CC)ccnc4C)cc2)CCCN3CC2CCOCC2)cc1 (single isomer, unassigned) , output reported IC50.
Outgoing: > 50 µM

Incoming: Input CCCCOCCOc1ccc(-c2ccc3c(c2)C=C(C(=O)Nc2ccc([S+]([O-])Cc4cnc(C)cc4CC)cc2)CCCN3CC2CCOCC2)cc1 (single isomer, unassigned) , output reported IC50.
Outgoing: > 50 µM

Incoming: Input CCCCOCCOc1ccc(-c2ccc3c(c2)C=C(C(=O)Nc2ccc([S+]([O-])Cc4c(CC)ccnc4C)cc2)CCCN3CC2CCCO2)cc1 (single isomer, unassigned) , output reported IC50.
Outgoing: > 50 µM
